Run Description: Absorbance at photostationary state (PSS) under simulated sunlight or 365 nm light
Assay type: physicochemical
Conditions: ratio of PSS under 365 nm light to PSS under full spectrum light (without UV blocking film)
We use 2 as the dividing line for sensitivity index: on or above the line is MET, below is NOT MET.

Compound Structure String | Class Assignment
N#Cc1ccc(-c2ccc(-c3cc(C4=C(c5cc(-c6ccc(-c7ccc(C#N)s7)s6)sc5-c5cccs5)C(F)(F)C(F)(F)C4(F)F)c(-c4cccs4)s3)s2)s1 | NOT MET
CCOCCOCCOCCOc1ccc(-c2sc(-c3ccc(C(C)(C)C)s3)cc2C2=C(c3cc(-c4ccc(C(C)(C)C)s4)sc3-c3ccc(OCCOCCOCCOCC)cc3)C(F)(F)C(F)(F)C2(F)F)cc1 | NOT MET
C[Si](C)(C)c1ccc(-c2cc(C3=C(c4cc(-c5ccc([Si](C)(C)C)s5)sc4-c4ccc([Si](C)(C)C)s4)C(F)(F)C(F)(F)C3(F)F)c(-c3ccc([Si](C)(C)C)s3)s2)s1 | NOT MET
Cc1csc(-c2cc(C3=C(c4cc(-c5cc(C)cs5)sc4-c4cc(C)cs4)C(F)(F)C(F)(F)C3(F)F)c(-c3cc(C)cs3)s2)c1 | NOT MET
FC1(F)C(c2cc(-c3ccc(/C=C/c4ccccc4)s3)sc2-c2cccs2)=C(c2cc(-c3ccc(/C=C/c4ccccc4)s3)sc2-c2cccs2)C(F)(F)C1(F)F | NOT MET
COCCOc1ccc(-c2sc(-c3ccc(C(C)(C)C)s3)cc2C2=C(c3cc(-c4ccc(C(C)(C)C)s4)sc3-c3ccc(OCCOC)cc3)C(F)(F)C(F)(F)C2(F)F)cc1 | NOT MET
COc1ccc2c(C3=C(c4c(-c5ccc(OC)c(OC)c5)oc5cc(OC)ccc45)C(F)(F)C(F)(F)C3(F)F)c(-c3ccc(OC)c(OC)c3)oc2c1 | MET
COc1ccc(-c2cc(C3=C(c4cc(-c5ccc(OC)s5)sc4-c4ccc(OC)s4)C(F)(F)C(F)(F)C3(F)F)c(-c3ccc(OC)s3)s2)s1 | MET
COc1ccc2c(C3=C(c4c(-c5ccc(-c6ccc(C(C)(C)C)s6)s5)oc5cc(OC)ccc45)C(F)(F)C(F)(F)C3(F)F)c(-c3ccc(-c4ccc(C(C)(C)C)s4)s3)oc2c1 | MET
CC(C)(C)c1ccc(-c2sc(-c3ccc(Cl)cc3)cc2C2=C(c3cc(-c4ccc(Cl)cc4)sc3-c3ccc(C(C)(C)C)cc3)C(F)(F)C(F)(F)C2(F)F)cc1 | MET

====

Run Description: Absorbance at photostationary state (PSS) under simulated sunlight or 365 nm light
Type: physicochemical
Parameters: unit not given here
Conditions: wavelength of maximum absorbance in the visible range, ring-closed isoform; 2.0×10^−5 M in triglyme

Compound | λ max
CC(C)(C)c1ccc(-c2cc(C3=C(c4cc(-c5ccc(C(C)(C)C)s5)sc4-c4ccc(N5CCOCC5)cc4)C(F)(F)C(F)(F)C3(F)F)c(-c3ccc(N4CCOCC4)cc3)s2)s1 [S112] | 663
CCCCCCCCc1ccc(-c2oc3ccccc3c2C2=C(c3c(-c4ccc(CCCCCCCC)cc4)oc4ccccc34)C(F)(F)C(F)(F)C2(F)F)cc1 [S079] | 490
FC1(F)C(c2cc(-c3ccc(/C=C/c4ccccc4)s3)sc2-c2cccs2)=C(c2cc(-c3ccc(/C=C/c4ccccc4)s3)sc2-c2cccs2)C(F)(F)C1(F)F [S038] | 690

====

# reported Absorbance at PSS, +UV; entries follow
Run Description: Absorbance at photostationary state (PSS) under simulated sunlight or 365 nm light
Assay type: physicochemical
Conditions: simulated sunlight with UV blocking film (cutoff 370 nm); 2.0×10^−5 M in triglyme

Compound Structure String | Absorbance at PSS, +UV
Cc1cc(-c2cc(C3=C(c4cc(-c5cc(C)c(C)s5)sc4-c4cc(C)c(C)s4)C(F)(F)C(F)(F)C3(F)F)c(-c3cc(C)c(C)s3)s2)sc1C | 0.142
c1ccc(-c2cc(-c3nc(-c4ccccc4)sc3-c3cc(-c4ccccc4)sc3-c3ccccc3)c(-c3ccccc3)s2)cc1 | 0.008
CC(C)(C)COc1ccc(-c2cc(C3=C(c4cc(-c5ccc(OCC(C)(C)C)cc5)sc4-c4ccc(OCC(C)(C)C)cc4)C(F)(F)C(F)(F)C3(F)F)c(-c3ccc(OCC(C)(C)C)cc3)s2)cc1 | 0.086

====

Run Description: Absorbance at photostationary state (PSS) under simulated sunlight or 365 nm light
Type: physicochemical
Conditions: 365 nm light source; 2.0×10^−5 M in triglyme
We use 0.3 as the dividing line for Absorbance at PSS, 365 nm: on or above the line is criterion met, below is criterion not met.

Molecule | Class Assignment
CC(C)(C)c1ccc(-c2sc(-c3cccs3)cc2C2=C(c3cc(-c4cccs4)sc3-c3ccc(C(C)(C)C)cc3)C(F)(F)C(F)(F)C2(F)F)cc1 [S052] | criterion met
c1ccc(-c2cc(-c3nc(-c4ccccc4)sc3-c3cc(-c4ccccc4)sc3-c3ccccc3)c(-c3ccccc3)s2)cc1 [S055] | criterion not met
CC(C)(C)c1ccc(-c2sc(-c3ccc(C4(C)OCCO4)cc3)cc2C2=C(c3cc(-c4ccc(C5(C)OCCO5)cc4)sc3-c3ccc(C(C)(C)C)cc3)C(F)(F)C(F)(F)C2(F)F)cc1 [S066] | criterion not met
CCOCCOCCOCCOc1ccc(-c2sc(-c3ccc(C(C)(C)C)s3)cc2C2=C(c3cc(-c4ccc(C(C)(C)C)s4)sc3-c3ccc(OCCOCCOCCOCC)cc3)C(F)(F)C(F)(F)C2(F)F)cc1 [S109] | criterion met
Cc1cc(-c2sc(C)c(C)c2C2=C(c3c(-c4cc(C)c(C)s4)sc(C)c3C)C(F)(F)C(F)(F)C2(F)F)sc1C [S039] | criterion met
FC1(F)C(c2cc(-c3ccc(Cl)s3)sc2-c2ccc(Cl)s2)=C(c2cc(-c3ccc(Cl)s3)sc2-c2ccc(Cl)s2)C(F)(F)C1(F)F [S026] | criterion met

====

Run Description: Absorbance at photostationary state (PSS) under simulated sunlight or 365 nm light
Type: physicochemical
Conditions: simulated sunlight with UV blocking film (cutoff 370 nm); 2.0×10^−5 M in triglyme

Compound | Absorbance at PSS, +UV
CC(C)(C)c1ccc(-c2cc(C3=C(c4cc(-c5ccc(C(C)(C)C)s5)sc4-c4ccc(N5CCOCC5)cc4)C(F)(F)C(F)(F)C3(F)F)c(-c3ccc(N4CCOCC4)cc3)s2)s1 [S112] | 0.246
CC(C)(C)c1ccc(-c2cc(C3=C(c4cc(-c5ccc(C(C)(C)C)s5)sc4-c4ccc(OCCCO)cc4)C(F)(F)C(F)(F)C3(F)F)c(-c3ccc(OCCCO)cc3)s2)s1 [S111] | 0.192
FC1(F)C(c2cc(-c3ccc(Cl)cc3)sc2-c2ccc(Cl)cc2)=C(c2cc(-c3ccc(Cl)cc3)sc2-c2ccc(Cl)cc2)C(F)(F)C1(F)F [S056] | 0.026
COc1cc(OC)cc(-c2cc(C3=C(c4cc(-c5cc(OC)cc(OC)c5)sc4-c4cc(OC)cc(OC)c4)C(F)(F)C(F)(F)C3(F)F)c(-c3cc(OC)cc(OC)c3)s2)c1 [S097] | 0.029
CC(C)(C)c1ccc(-c2cc(C3=C(c4cc(-c5ccc(C(C)(C)C)s5)sc4-c4cccs4)C(F)(F)C(F)(F)C3(F)F)c(-c3cccs3)s2)s1 [S170] | 0.182

====

Run Description: Absorbance at photostationary state (PSS) under simulated sunlight or 365 nm light
Format: physicochemical
Conditions: 365 nm light source; 2.0×10^−5 M in triglyme
Protocol: Absorbance at a PSS for selected compounds was measured at 2.0×10^−5 M in triglyme in the absence (full) or presence (+UV) of a UV blocking film with a UV cutoff wavelength of 370 nm (10% transmission at 370 nm), using simulated sunlight (QSUN solar simulator) as a light source, or a 365 nm light source; these PSS are reported in Tables 1.5. […]
# reported Absorbance at PSS, 365 nm; entries follow
Endpoint Label: Absorbance at PSS, 365 nm

Molecule | Reported
CC(C)Oc1ccc(-c2cc(C3=C(c4cc(-c5ccc(OC(C)C)cc5)sc4-c4ccc(OC(C)C)cc4)C(F)(F)C(F)(F)C3(F)F)c(-c3ccc(OC(C)C)cc3)s2)cc1 [S092] | 0.307
C[Si](C)(C)c1ccc(-c2cc(C3=C(c4cc(-c5ccc([Si](C)(C)C)s5)sc4-c4ccc([Si](C)(C)C)s4)C(F)(F)C(F)(F)C3(F)F)c(-c3ccc([Si](C)(C)C)s3)s2)s1 [S135] | 0.387
FC1(F)C(c2cc(-c3ccc(/C=C/c4ccccc4)s3)sc2-c2cccs2)=C(c2cc(-c3ccc(/C=C/c4ccccc4)s3)sc2-c2cccs2)C(F)(F)C1(F)F [S038] | 0.642
COc1ccc(-c2sc(-c3ccc(C#N)cc3)cc2C2=C(c3cc(-c4ccc(C#N)cc4)sc3-c3ccc(OC)cc3)C(F)(F)C(F)(F)C2(F)F)cc1 [S085] | 0.187
COc1ccc2c(C3=C(c4c(-c5ccc(C(C)(C)C)cc5)oc5cc(OC)ccc45)C(F)(F)C(F)(F)C3(F)F)c(-c3ccc(C(C)(C)C)cc3)oc2c1 [S151] | 0.403
